Where these numbers come from: ChEMBL document CHEMBL4689842

# System: U2OS
# methodSummary: Incucyte cell viability with U2OS; note: filed as whole numbers so only -1 and 0 and 1 occur
# Type: toxicity, cell-based
# experimentalParameters: human, 6 h, 10 µM, compound concentration 10 uM, replicate number 2, timepoint 6 hours
quantityName: Growth Rate

# molecule, measurement
measured = [
    ("C[C@H](NC(=O)c1cnc2n1[C@](C)(Cc1ccc(C#N)cc1)C(=O)N2c1cc(Cl)c(F)c(Cl)c1)C(=O)NC1(c2ccccn2)CC1 [BI 1950]", 1),
    ("COc1ccccc1CN[C@H]1C2CCN(CC2)[C@H]1C(c1ccccc1)c1ccccc1 [CP-96345]", 1),
    ("C[C@H](NC[C@H](O)CP(=O)(O)CC1CCCCC1)c1ccc(Cl)c(Cl)c1.Cl", 0),
    ("S=C=Nc1cccc(NC(=S)NCCCCNC(=S)Nc2cccc(N=C=S)c2)c1", 0),
    ("CNCc1ccccc1-c1csc([C@@H](C)Nc2nc(C)nc3cc(OC)c(OC)cc23)c1 [BAY-293]", 1),
    ("Cc1ccc2c(c1)c1c(n2CCc2ccc(C)nc2)CCN(C)C1 [LATREPIRDINE]", 0),
    ("Cc1cnc(-c2cc(Cl)ccc2F)cc1-n1c(=O)n(CC(N)=O)c2ccccc21 [Al11]", 0),
    ("Cl.Cl.Cl.c1ccc(N2CCN(Cc3nc4ccccc4[nH]3)CC2)nc1", 0),
    ("Cc1nc(N2CC[C@H](O)C2)ncc1-c1cc(C(F)(F)F)cc2[nH]ncc12", 1),
]
